targetDesc: Pyroglutamylated RF-amide peptide receptor (Homo sapiens)
Sequence (Q96P65 whole entry): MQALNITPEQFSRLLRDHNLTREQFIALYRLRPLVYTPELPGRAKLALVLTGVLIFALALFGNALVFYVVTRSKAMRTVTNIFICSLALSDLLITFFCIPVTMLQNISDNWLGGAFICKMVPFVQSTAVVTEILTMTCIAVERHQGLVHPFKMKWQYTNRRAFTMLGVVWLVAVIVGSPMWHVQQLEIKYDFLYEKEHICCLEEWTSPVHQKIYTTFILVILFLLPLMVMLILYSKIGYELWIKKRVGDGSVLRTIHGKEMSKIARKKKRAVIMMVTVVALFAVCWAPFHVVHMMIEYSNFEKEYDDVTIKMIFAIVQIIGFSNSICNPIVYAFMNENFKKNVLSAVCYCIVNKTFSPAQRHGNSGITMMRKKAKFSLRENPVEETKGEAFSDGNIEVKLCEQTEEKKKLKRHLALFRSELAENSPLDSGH
protocol: Agonist activity at human GPR103 expressed in CHO cells co-expressing Galpha16 assessed as increase in intracellular calcium level measured for 2 mins by fluorimetry
pEC50: −log10 of the molar value. Numbered stars: 1 amine (or outer) side, 2 acyl side, 3 side chain; on linkers, the order of the positions; unused ones are H or OH. Square brackets hold non-standard residues; d marks the D form. Peptide text beside a SMILES is read from it. * marks the point of attachment. Acetyl(2-(piperazin-1-yl)) = O=C(CN1CCNCC1)*; X5 = O=C(CN(Cc1ccccc1)N[*:1])[*:2]; X9 = O=C(CN(CC1CCCCC1)N[*:1])[*:2]; X1 = O=C(CN(CC(O)CO)N[*:1])[*:2]; X3 = CCCCN(CC(=O)[*:2])N[*:1]; X7 = O=C(CN1CCCN1)*
measurementLabel: pEC50

Example entries and their recorded answers appear below.
CCCCN(CC(=O)N[C@@H](Cc1ccccc1)C(=O)N[C@@H](CCCNC(=N)N)C(=O)N[C@@H](Cc1ccccc1)C(N)=O)NC(=O)[C@H](Cc1ccccc1)NC(=O)CNC(=O)CN (H-GGF[X3]FRF-NH2)	4.53
NC(=O)[C@H](Cc1ccccc1)NC(=O)[C@H](CCCN=C(N)N)NC(=O)[C@H](Cc1ccccc1)NC(=O)[C@H](CO)NC(=O)[C@H](Cc1ccccc1)NC(=O)CN1CCNCC1 ({Acetyl(2-(piperazin-1-yl))}-FSFRF-NH2)	6.86
N=C(N)NCCC[C@H](NC(=O)[C@H](Cc1ccccc1)NC(=O)CN(CC(O)CO)NC(=O)[C@H](Cc1ccccc1)NC(=O)CN1CCCN1)C(=O)N[C@@H](Cc1ccccc1)C(N)=O (some centres undefined) (X7-F[X1]FRF-NH2)	6.42
NCC(=O)NCC(=O)N[C@@H](Cc1ccccc1)C(=O)NN(CC(=O)N[C@@H](Cc1ccccc1)C(=O)N[C@@H](CCCN=C(N)N)C(=O)N[C@@H](Cc1ccccc1)C(N)=O)CC1CCCCC1 (H-GGF[X9]FRF-NH2)	5.86
N=C(N)NCCC[C@H](NC(=O)[C@H](Cc1ccccc1)NC(=O)CN(CC(O)CO)NC(=O)[C@H](Cc1ccccc1)NC(=O)CN1CCNCC1)C(=O)N[C@@H](Cc1ccccc1)C(N)=O (some centres undefined) ({Acetyl(2-(piperazin-1-yl))}-F[X1]FRF-NH2)	7.03

(A) NCC(=O)NCC(=O)NN(CC(=O)N[C@@H](CO)C(=O)N[C@@H](Cc1ccccc1)C(=O)N[C@@H](CCCN=C(N)N)C(=O)N[C@@H](Cc1ccccc1)C(N)=O)Cc1ccccc1 (H-GG[X5]SFRF-NH2)
(B) NCC(=O)NCC(=O)N[C@@H](Cc1ccccc1)C(=O)NN(CC(=O)N[C@@H](Cc1ccccc1)C(=O)N[C@@H](CCCN=C(N)N)C(=O)N[C@@H](Cc1ccccc1)C(N)=O)CC(O)CO (some centres undefined) (H-GGF[X1]FRF-NH2)
Compare A and B by numeric pEC50 and name the larger one. Write the label of whichever entry you select.
B

---

protocol: Half life in human serum by RP-HPLC
Assay type: ADME, cell-free
Numbered stars: 1 amine (or outer) side, 2 acyl side, 3 side chain; on linkers, the order of the positions; unused ones are H or OH. Square brackets hold non-standard residues; d marks the D form. Peptide text beside a SMILES is read from it. * marks the point of attachment. Acetyl(2-(piperazin-1-yl)) = O=C(CN1CCNCC1)*; X1 = O=C(CN(CC(O)CO)N[*:1])[*:2]
measurementLabel: half-life (min)

(1) N=C(N)NCCC[C@H](NC(=O)[C@H](Cc1ccccc1)NC(=O)CN(CC(O)CO)NC(=O)[C@H](Cc1ccccc1)NC(=O)CN1CCNCC1)C(=O)N[C@@H](Cc1ccccc1)C(N)=O (some centres not stated) ({Acetyl(2-(piperazin-1-yl))}-F[X1]FRF-NH2)
(2) N=C(N)NCCC[C@H](NC(=O)[C@H](Cc1ccccc1)NC(=O)[C@H](CO)NC(=O)[C@H](Cc1ccccc1)NC(=O)CNC(=O)CN)C(=O)N[C@@H](Cc1ccccc1)C(N)=O (H-GGFSFRF-NH2)
Dear colleague, could you let me know whether 1 or 2 has the lower recorded half-life? Thanks. Write the label of whichever entry you select.
2
(2: 11.2 min, 1: 35.6 min)
